# System: TRPC4 (mouse), co-expressed with 5HT1a in HEK293
# ASSAY OVERVIEW: enhancement of serotonin-evoked TRPC4 response – cell-based, second counter screen, HEK293 TRPC4/5HT1a, Fluo-4, counter-screen for TRPC4 potentiator project, confirmation (AID 434979)
# COND: Fluo-4 calcium flux, at 10 µM, serotonin added at its EC20 dose
Calls of active or inactive are those of the source.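 Rule for the calls: active = signal rise over 3 SD above mean of control wells given weak agonist, in both repeats and first screen; inactive = the rest.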
Classes to choose from: active, inactive

Example entries begin here.
[[record]]
molecule = "Cc1cc(C)c2nc(C)cc(N/N=C/c3ccc(O)cc3)c2c1"
label_class = "inactive"

[[record]]
molecule = "O=C(NC1CCCC1)c1cc2ccccc2o1"
label_class = "active"

[[record]]
molecule = "Cc1nc(N2CCN(c3ccccn3)CC2)c2c(C)c(C(=O)N3CCN(c4ccc(F)cc4)CC3)sc2n1"
label_class = "inactive"


What was the test verdict on CCOC(=O)c1ccc(NC(=S)N2CCSC2c2ccc(Cl)cc2)cc1 (centres undefined) ?
active

----------
# Test system: TRPC4 (mouse), co-expressed with 5HT1a in HEK293
# ASSAY OVERVIEW: enhancement of serotonin-evoked TRPC4 response – cell-based, second counter screen, HEK293 TRPC4/5HT1a, Fluo-4, counter-screen for TRPC4 potentiator project, confirmation (AID 434979)
# COND: Fluo-4 calcium flux, at 10 µM, serotonin added at its EC20 dose
Activity calls are given as the source filed them.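 How the source made its calls: active means signal rise over 3 SD above mean of control wells given weak agonist, in both repeats and first screen; inactive means the rest.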
Classes to choose from: active, inactive

Example entries begin here.
[[record]]
compound = "COc1ccc(SC[C@H](Cc2ccccc2)N2CCN(C)CCC2=O)cc1"
label_class = "inactive"

[[record]]
compound = "COc1ccc(C(=O)/C=C/C(=O)N(CC(=O)NC2CCCCC2)CC2CCCO2)c(O)c1 (stereo not drawn)"
label_class = "inactive"


What was the test verdict on O=C(Nc1cccc(Cl)c1)c1cnn2cccnc12 ?
active

What was the test verdict on OC1(c2ccc(F)cc2)CCN(Cc2ccccc2)C1 (stereo not drawn) ?
inactive

What was the test verdict on N=c1n(CCO)c2ccccc2n1Cc1ccc(Cl)cc1 ?
inactive

What was the test verdict on c1ccc(CNc2c3ccccc3nc3ccccc23)cc1 ?
inactive

What was the test verdict on COc1ccc(CCN2C(=S)N(C)C(=O)C2CC(=O)Nc2ccc(F)cc2)cc1 (stereo not drawn) ?
inactive

----------
# ASSAY SYSTEM: Short transient receptor potential channel 6 (Mus musculus) (UniProt Q61143)
# Sequence (Q61143 whole entry, looked up): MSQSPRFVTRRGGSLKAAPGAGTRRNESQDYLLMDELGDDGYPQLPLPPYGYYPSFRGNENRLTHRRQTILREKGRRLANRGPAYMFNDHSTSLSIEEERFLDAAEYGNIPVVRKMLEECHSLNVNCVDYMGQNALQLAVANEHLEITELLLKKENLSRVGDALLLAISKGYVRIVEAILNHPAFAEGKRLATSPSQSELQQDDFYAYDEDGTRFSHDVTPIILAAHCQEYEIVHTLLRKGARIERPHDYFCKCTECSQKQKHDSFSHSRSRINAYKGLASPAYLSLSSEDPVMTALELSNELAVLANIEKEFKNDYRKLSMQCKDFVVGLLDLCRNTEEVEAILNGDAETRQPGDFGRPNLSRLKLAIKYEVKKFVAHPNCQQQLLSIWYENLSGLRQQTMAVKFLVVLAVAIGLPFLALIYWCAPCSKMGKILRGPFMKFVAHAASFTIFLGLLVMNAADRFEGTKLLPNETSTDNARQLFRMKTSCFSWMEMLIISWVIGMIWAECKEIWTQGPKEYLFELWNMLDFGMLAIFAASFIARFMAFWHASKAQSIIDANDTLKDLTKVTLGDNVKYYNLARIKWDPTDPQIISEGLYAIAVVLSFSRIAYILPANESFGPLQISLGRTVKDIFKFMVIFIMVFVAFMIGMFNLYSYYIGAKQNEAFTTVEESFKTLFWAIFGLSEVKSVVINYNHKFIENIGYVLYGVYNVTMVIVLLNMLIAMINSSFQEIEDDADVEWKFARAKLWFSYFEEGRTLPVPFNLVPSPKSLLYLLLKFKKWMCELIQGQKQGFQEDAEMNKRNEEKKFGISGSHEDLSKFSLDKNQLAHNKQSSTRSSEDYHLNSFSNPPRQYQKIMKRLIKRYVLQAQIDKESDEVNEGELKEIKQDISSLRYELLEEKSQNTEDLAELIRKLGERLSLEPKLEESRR
# ASSAY OVERVIEW: TRPC6 opening by TRPC4 activator hits – cell-based, HEK293, membrane potential dye, duplicate, selectivity assay for TRPC4 activator project, confirmation (AID 434950)
# COND: HEK293 TRPC6, membrane potential fluorescence, at 10 µM; activation
Active and inactive are the calls of the source.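 The calls were made as follows: active = membrane potential signal rise above negative control mean plus 3 SD in both duplicates, also active in the earlier TRPC4 screen; inactive = the rest.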
MEASUREMENT LABEL: outcome

[[record]]
compound = "COc1cccc2cc(C(N)=O)/c(=N\\NC(=O)c3ccccc3)oc12"
measurement_label = "outcome"
test_result = "inactive"

[[record]]
compound = "COc1ccc(/C=N/n2c(SC)nnc2-c2ccccc2)cc1C"
measurement_label = "outcome"
test_result = "inactive"

[[record]]
compound = "Cn1c(=O)n(CCCO)c(=O)c2c1nc1n2CCCN1Cc1ccccc1"
measurement_label = "outcome"
test_result = "inactive"

[[record]]
compound = "CCOC(=O)C1=NN(c2ccccc2C)C2=NC(C)=C(C(=O)OC)C(c3cccc(OC)c3)N12 (centres undefined)"
measurement_label = "outcome"
test_result = "inactive"

